Measured values drawn from patent US20230167073A1 for this set.

- target_entity: Human TRPC6 (Homo sapiens)
- Construct: expressed in transfected cells
- Sequence (Q9Y210 1-931): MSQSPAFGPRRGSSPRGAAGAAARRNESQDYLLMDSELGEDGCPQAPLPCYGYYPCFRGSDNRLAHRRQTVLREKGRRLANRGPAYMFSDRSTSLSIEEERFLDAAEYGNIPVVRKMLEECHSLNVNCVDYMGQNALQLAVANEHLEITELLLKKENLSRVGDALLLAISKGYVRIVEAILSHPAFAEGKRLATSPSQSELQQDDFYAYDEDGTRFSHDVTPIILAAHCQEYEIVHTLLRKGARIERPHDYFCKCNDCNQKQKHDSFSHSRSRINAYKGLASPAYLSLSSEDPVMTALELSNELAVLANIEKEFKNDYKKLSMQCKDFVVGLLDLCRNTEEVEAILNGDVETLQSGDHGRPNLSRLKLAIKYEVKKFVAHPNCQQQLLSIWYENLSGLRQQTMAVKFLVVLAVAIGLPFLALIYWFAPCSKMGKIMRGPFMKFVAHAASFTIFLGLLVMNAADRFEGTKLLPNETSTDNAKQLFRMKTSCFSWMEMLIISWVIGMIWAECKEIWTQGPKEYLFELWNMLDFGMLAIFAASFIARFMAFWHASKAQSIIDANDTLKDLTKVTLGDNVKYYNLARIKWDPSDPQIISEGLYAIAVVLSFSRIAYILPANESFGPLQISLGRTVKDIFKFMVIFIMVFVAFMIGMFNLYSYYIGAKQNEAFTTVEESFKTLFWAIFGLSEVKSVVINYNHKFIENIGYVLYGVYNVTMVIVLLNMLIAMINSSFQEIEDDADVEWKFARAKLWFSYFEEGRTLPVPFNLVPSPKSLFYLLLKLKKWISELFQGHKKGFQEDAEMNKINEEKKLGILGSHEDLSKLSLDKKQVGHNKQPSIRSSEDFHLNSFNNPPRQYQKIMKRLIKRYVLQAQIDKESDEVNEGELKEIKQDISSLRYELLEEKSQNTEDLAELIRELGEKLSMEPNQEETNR
- measurement_description: Evaluation of TRPC6 channel inhibitory activity (1), FLIPR Calcium 5 Assay Kit, OAG stimulation (Compound Nos. 1-1293)
- Type: cell-based
- cond: Human TRPC6 stably-expressing cells, OAG 30 μM, FLIPR Calcium 5 Assay Kit; read-out: Inhibitory activity (pIC50 class) (converted)
Below, each of the compounds is paired with its reported IC50 value.

The measured IC50 associated with CC(C)c1cc(Oc2cc(C#N)ccc2-c2ncc(CN)cn2)n(C)n1 reads < 10 nM

N#Cc1ccc(-c2ncc(CN)cn2)c(C(=O)c2sc(N3CCOCC3)nc2C(F)(F)F)c1 yielded IC50 of < 10 nM

Reported IC50 for Cn1nc(-c2ccccn2)cc1Oc1cc(C#N)ccc1-c1ccc(CCN)cn1 was < 10 nM

* * *

- target_entity: Human TRPC6 (Homo sapiens, UniProt Q9Y210)
- Construct: expressed in transfected cells
- Sequence (Q9Y210 1-931): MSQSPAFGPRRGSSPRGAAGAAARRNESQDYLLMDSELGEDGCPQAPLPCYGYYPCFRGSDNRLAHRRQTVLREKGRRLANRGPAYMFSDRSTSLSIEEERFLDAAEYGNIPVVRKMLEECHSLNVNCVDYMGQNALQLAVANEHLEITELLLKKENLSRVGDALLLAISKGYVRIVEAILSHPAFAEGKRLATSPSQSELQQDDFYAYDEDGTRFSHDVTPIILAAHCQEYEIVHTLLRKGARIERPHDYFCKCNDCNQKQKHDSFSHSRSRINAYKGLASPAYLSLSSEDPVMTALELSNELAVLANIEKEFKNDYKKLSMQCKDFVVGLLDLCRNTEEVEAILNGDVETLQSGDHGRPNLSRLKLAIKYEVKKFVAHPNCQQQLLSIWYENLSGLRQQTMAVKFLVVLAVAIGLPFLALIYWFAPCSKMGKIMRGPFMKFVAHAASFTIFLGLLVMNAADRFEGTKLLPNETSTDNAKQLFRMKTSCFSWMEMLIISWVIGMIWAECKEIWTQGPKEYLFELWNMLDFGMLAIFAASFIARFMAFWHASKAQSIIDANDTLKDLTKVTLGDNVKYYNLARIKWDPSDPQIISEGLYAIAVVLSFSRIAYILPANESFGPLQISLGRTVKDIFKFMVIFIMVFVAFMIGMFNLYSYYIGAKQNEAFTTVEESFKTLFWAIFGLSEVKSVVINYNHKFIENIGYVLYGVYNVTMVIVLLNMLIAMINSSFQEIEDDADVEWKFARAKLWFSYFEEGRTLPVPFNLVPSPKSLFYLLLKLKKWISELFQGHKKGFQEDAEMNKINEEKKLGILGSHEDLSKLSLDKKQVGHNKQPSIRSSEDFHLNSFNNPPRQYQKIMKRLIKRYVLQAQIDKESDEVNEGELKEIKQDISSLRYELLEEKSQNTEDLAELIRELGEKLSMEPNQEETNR
- measurement_description: Evaluation of TRPC6 channel inhibitory activity (1), FLIPR Calcium 5 Assay Kit, OAG stimulation (Compound Nos. 1-1293)
- Format: cell-based
- cond: Human TRPC6 stably-expressing cells, OAG 30 μM, FLIPR Calcium 5 Assay Kit; read-out: Inhibitory activity (pIC50 class) (converted)
value_kind: IC50

Example entries and their recorded answers appear below.
COCCCCN(C)c1cc(Oc2cc(C#N)ccc2-c2ncc(CCN)cn2)n(C)n1: 10 to 1000 nM
Cn1nc(-c2ccccn2)cc1Oc1cc(F)ccc1-c1ncc(CCN)cn1: < 10 nM
Cc1nc(Oc2cc(C#N)ccc2-n2ncc3c2CCNC3)cc(N2CCCCC2)n1: > 1000 nM
CN(C)C(=O)C(N)c1ccc(-c2ccc(C#N)cc2Oc2cc(C3CC3)nn2C)nc1 (centres unmarked): > 1000 nM
Cc1cc(Oc2cc(C#N)ccc2-c2ncc(CCN)cn2)cc(N2CCO[C@H](C(F)F)C2)n1: < 10 nM
Cn1nc(-c2cccnc2)cc1Oc1cc(C#N)ccc1-c1ccc(CCN)cc1: 10 to 1000 nM
CCN(CC)c1cc(Oc2cc(F)ccc2-c2ncc(CN)cn2)n(C)n1: < 10 nM

Next up:
Value of measured IC50 for the entry Cc1cc(Oc2cc(C#N)ccc2-c2ccc(N3CC[C@H](N)C3=O)cn2)cc(N2CCOCC2)n1 : > 1000 nM

* * *

- target_entity: Human TRPC6 (Homo sapiens, UniProt Q9Y210)
- Construct: expressed in transfected cells
- measurement_description: Evaluation of TRPC6 channel inhibitory activity (2), HEK293 cells with stably introduced human TRPC6, OAG stimulation, FLIPR tetra (Compound Nos. 1293 to 1405)
- Assay type: cell-based
- cond: HEK293 cells with stably introduced human TRPC6, OAG 50 μM/0.5% DMSO, read-out: Inhibitory activity (pIC50 class) (converted)
value_kind: IC50

Cc1nc(Oc2cc(Cl)ccc2-c2ncc([C@@H](F)CN)cn2)cc(N2CCOCC2)n1: 10 to 1000 nM
Cn1nc(C2CCOCC2)cc1Oc1cc(Cl)ccc1-c1ncc([C@H](O)CN)cn1: 10 to 1000 nM

Shifting focus to the compound that follows.
Cc1cc(Oc2cc(Cl)cnc2-c2ncc(CCN)cn2)cc(N2CCOCC2)n1 on Human TRPC6 (Homo sapiens, UniProt Q9Y210) gives IC50 = 10 to 1000 nM

* * *

- target_entity: Human TRPC6 (Homo sapiens, UniProt Q9Y210)
- Construct: expressed in transfected cells
- measurement_description: Evaluation of TRPC6 channel inhibitory activity (1), FLIPR Calcium 5 Assay Kit, OAG stimulation (Compound Nos. 1-1293)
- Format: cell-based
- cond: Human TRPC6 stably-expressing cells, OAG 30 μM, FLIPR Calcium 5 Assay Kit; read-out: Inhibitory activity (pIC50 class) (converted)
value_kind: IC50

Worked set:
CCN(CC)c1cc(Oc2cc(C#N)ccc2-c2ccc(CCN)cc2)nc(C)n1: 0.01 to 1 µM
Cn1nc(C2CC2)cc1Oc1cc(C#N)ccc1-c1ncc(C(N)CO)cn1 (stereo not shown): 0.01 to 1 µM
Cc1nc(-c2ccccc2)cn1Cc1cc(C#N)ccc1-n1cc(C(O)CN)cn1 (stereo not shown): > 1 µM

Turning now to a further record.
Given the compound Cc1nc(Oc2cc(C#N)ccc2-n2cc([C@@H](O)CN)cn2)cc(-c2ccccc2C)n1 and test system Human TRPC6 (Homo sapiens, UniProt Q9Y210), the measured IC50 is 0.01 to 1 µM

* * *

- target_entity: Human TRPC6 (Homo sapiens, UniProt Q9Y210)
- Construct: expressed in transfected cells
- measurement_description: Evaluation of TRPC6 channel inhibitory activity (1), FLIPR Calcium 5 Assay Kit, OAG stimulation (Compound Nos. 1-1293)
- Assay type: cell-based
- cond: Human TRPC6 stably-expressing cells, OAG 30 μM, FLIPR Calcium 5 Assay Kit; read-out: Inhibitory activity (pIC50 class) (converted)
Reported IC50 by item:

Before answering, review these 6 worked examples.
Cc1nc(Oc2cc(C#N)ccc2-c2nc(C(O)CN(C)C)c(C)n2C)cc(-c2ccccc2)n1 (centres unmarked) [Compound 99]: > 1000 nM
Cn1nc(-c2ccccc2)cc1Oc1cc(C#N)ccc1-c1ccc(CCCN)cc1 [compound 579]: 10 to 1000 nM
N#Cc1ccc(-c2ccc(CCN)cc2)c(Oc2cnnc(-c3ccccc3O)c2)c1 [Compound 70]: < 10 nM
CC(C)Cn1cc(C(=O)c2cc(C#N)ccc2-c2ncc(CCN)cn2)cn1 [compound 1060]: < 10 nM
Cn1nc(-c2ccccc2)cc1Oc1cc(C#N)ccc1-c1cnc(CCN)cn1 [compound 313]: < 10 nM
CCc1nn(CC(C)C)cc1Oc1cc(C#N)ccc1-c1ncc(CCN)cn1 [compound 953]: < 10 nM

Value of measured IC50 for the entry Cn1nc(C2CC2)cc1Oc1cc(C#N)ccc1-c1ccc(CC(C)(C)N)cn1 [compound 334] : < 10 nM

Given item Cn1nc(-c2nccs2)cc1Oc1cc(C#N)ccc1-c1ccc([C@H](O)CN)cn1 [compound 536] , the value recorded as its IC50 is < 10 nM
